target: T1, CD3ε homodimer protein (human, UniProt P07766 23-126, limits assumed, sulfo-tag or biotin label in some ECL assays)
T1 construct: also called human CD3ε homodimer protein; CD3 (CD3ε)
T1 sequence (P07766 23-126 limits assumed): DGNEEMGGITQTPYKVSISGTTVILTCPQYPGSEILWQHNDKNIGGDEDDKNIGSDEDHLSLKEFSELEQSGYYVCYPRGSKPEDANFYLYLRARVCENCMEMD
assay remarks: SPR, CD3ε homodimer on chip;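 further: biacore SPR with antibody variants flowed as analyte over amine-coupled CD3ε homodimer on a CM chip, bound amount of each single-residue H chain variant over that of parent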
quantity: ratio of amounts bound vs CE115HA000
Just the number.

Look over these answered cases.
binder	ratio of amounts bound vs CE115HA000
CE115HA000 S52cD (antibody, name in Kabat numbering, V domains shown) VH: QVQLVESGGGVVQPGRSLRLSCAASGFTFSNAWMHWVRQAPGKGLEWVAQIKAKDNNYATYYAESVKGRFTISRDDSKNSLYLQMNSLKTEDTAVYYCRYVHYGAYYGVDAWGQGTTVTVSS VL: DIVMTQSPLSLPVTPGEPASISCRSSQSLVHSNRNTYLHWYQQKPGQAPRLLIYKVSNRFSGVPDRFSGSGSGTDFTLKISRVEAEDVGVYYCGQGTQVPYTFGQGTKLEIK	0.6
CE115HA000 T57K (antibody, name in Kabat numbering, V domains shown) VH: QVQLVESGGGVVQPGRSLRLSCAASGFTFSNAWMHWVRQAPGKGLEWVAQIKAKSNNYAKYYAESVKGRFTISRDDSKNSLYLQMNSLKTEDTAVYYCRYVHYGAYYGVDAWGQGTTVTVSS VL: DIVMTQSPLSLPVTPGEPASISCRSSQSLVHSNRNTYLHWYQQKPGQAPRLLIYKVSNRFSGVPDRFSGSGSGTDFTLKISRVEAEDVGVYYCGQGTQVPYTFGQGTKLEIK	1.32

Enquiry: Please give the measured ratio of amounts bound vs CE115HA000 for this binder: CE115HA000 E61A (antibody, name in Kabat numbering, V domains shown) VH: QVQLVESGGGVVQPGRSLRLSCAASGFTFSNAWMHWVRQAPGKGLEWVAQIKAKSNNYATYYAASVKGRFTISRDDSKNSLYLQMNSLKTEDTAVYYCRYVHYGAYYGVDAWGQGTTVTVSS VL: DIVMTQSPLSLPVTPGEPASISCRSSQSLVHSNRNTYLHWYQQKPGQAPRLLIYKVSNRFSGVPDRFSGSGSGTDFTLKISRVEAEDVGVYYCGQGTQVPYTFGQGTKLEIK
Return: 1.09
